The values you see were collected from patent US11059824B2.

System: interferon-α production in hPBMCs
Assay: Induction of interferon-α production in hPBMCs
Assay type: cell-based, human
Details: geometric mean of all individual MECs across all donors; interferon-α production from hPBMCs, 24 hours
Marks after values point to notes of the source that are not given here.
measurement-name: Weighted MEC

molecule	Weighted MEC
C=CCn1c(=O)n([C@@H]2O[C@H](CO)C[C@H]2O)c2nc(N)[nH]c(=O)c21	100 µM
Nc1nc2c(c(=O)[nH]1)n(CC(F)F)c(=O)n2[C@@H]1O[C@H](CO)[C@H](O)[C@H]1O	100* μM
Nc1nc2c(c(=O)[nH]1)n(CC1CC1)c(=O)n2[C@@H]1O[C@H](CO)[C@H](O)[C@H]1O	66* μM
CCn1c(=O)n([C@@H]2O[C@H](CO)[C@H](O)[C@H]2O)c2nc(N)[nH]c(=O)c21	>100* μM
CC#CCn1c(=O)n([C@@H]2O[C@H](CO)[C@H](O)[C@H]2O)c2nc(N)[nH]c(=O)c21	79 µM
Nc1nc2c(c(=O)[nH]1)n(CCCCO)c(=O)n2[C@@H]1O[C@H](CO)[C@H](O)[C@H]1O	>100* μM
Nc1nc2c(c(=O)[nH]1)n(C/C=C/C(=O)O)c(=O)n2[C@@H]1O[C@H](CO)[C@H](O)[C@H]1O	>100* μM
COC(=O)CCCn1c(=O)n([C@@H]2O[C@H](CO)[C@H](O)[C@H]2O)c2nc(N)[nH]c(=O)c21	>100* μM
COCCn1c(=O)n([C@@H]2O[C@H](CO)[C@H](O)[C@H]2O)c2nc(N)[nH]c(=O)c21	>100* μM
Nc1nc2c(c(=O)[nH]1)n(CCCC(=O)O)c(=O)n2[C@@H]1O[C@H](CO)[C@H](O)[C@H]1O	>100* μM

Which Weighted MEC value belongs to Nc1nc2c(c(=O)[nH]1)n(Cc1ccccc1)c(=O)n2[C@@H]1O[C@H](CO)C[C@H]1O ?
79* μM

Tell me the measured Weighted MEC of CCCCn1c(=O)n([C@@H]2O[C@H](CO)C[C@H]2O)c2nc(N)[nH]c(=O)c21 , please.
50 µM

Reported Weighted MEC for C=CCn1c(=O)n([C@@H]2O[C@H](CO)[C@@H](O)[C@H]2O)c2nc(N)[nH]c(=O)c21 [loxoribine, reference compound] : what is it?
136* μM

What measured Weighted MEC goes with Nc1nc2c(c(=O)[nH]1)n(C/C=C/CO)c(=O)n2[C@@H]1O[C@H](CO)[C@H](O)[C@H]1O ?
>100* μM

// returns reported Weighted MEC for input Nc1nc2c(c(=O)[nH]1)n(CC#CCO)c(=O)n2[C@@H]1O[C@H](CO)[C@H](O)[C@H]1O
79 µM

* * *

Target: human TLR7 (Homo sapiens (Human), UniProt Q9NYK1)
Sequence (Q9NYK1 27-1049): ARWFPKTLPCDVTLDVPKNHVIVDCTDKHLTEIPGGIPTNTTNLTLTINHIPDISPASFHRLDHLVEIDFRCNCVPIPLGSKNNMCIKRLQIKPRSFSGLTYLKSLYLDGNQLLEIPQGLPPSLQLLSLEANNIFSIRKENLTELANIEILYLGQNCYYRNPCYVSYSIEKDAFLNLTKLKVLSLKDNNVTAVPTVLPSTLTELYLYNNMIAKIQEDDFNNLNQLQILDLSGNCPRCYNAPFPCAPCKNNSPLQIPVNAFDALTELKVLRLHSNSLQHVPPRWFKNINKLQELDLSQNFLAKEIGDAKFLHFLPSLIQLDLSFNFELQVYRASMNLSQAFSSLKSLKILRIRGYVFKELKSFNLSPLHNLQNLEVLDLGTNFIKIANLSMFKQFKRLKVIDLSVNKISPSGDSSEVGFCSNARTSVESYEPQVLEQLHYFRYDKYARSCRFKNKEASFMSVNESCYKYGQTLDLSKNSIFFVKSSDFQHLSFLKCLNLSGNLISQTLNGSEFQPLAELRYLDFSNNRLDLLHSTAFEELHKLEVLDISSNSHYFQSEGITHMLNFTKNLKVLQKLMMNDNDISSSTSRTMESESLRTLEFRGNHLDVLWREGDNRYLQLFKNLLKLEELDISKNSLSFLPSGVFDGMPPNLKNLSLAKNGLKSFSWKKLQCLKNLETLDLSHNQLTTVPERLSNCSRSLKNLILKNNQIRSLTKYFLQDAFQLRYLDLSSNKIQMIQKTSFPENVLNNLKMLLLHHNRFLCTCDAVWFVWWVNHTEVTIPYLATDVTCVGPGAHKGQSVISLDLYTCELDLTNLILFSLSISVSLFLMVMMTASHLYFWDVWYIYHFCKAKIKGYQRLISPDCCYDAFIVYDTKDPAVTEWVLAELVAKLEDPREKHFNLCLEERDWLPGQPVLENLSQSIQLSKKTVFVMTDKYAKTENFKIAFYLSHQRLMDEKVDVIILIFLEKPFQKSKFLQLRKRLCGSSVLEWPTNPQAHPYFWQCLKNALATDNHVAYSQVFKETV
Assay: TLR7 reporter assay (HEK293-TLR-NF-κB inducible SEAP reporter)
Conditions: HEK293 cells stably expressing human TLR7 with NF-κB-driven SEAP reporter; 15-24 hours
measurement-name: pEC50
Interpret pEC50 as the negative base-10 log of the concentration measured in mol/L.

molecule	value
CCCCn1c(=O)n([C@@H]2O[C@H](CO)[C@H](O)[C@H]2O)c2nc(N)[nH]c(=O)c21 [Compound 18]	3.48
C=CCn1c(=O)n([C@@H]2O[C@H](CO)[C@H](O)[C@H]2O)c2nc(N)[nH]c(=O)c21 [Compound 2]	3.53
C=CCn1c(=O)n([C@@H]2O[C@H](CO)C[C@H]2O)c2nc(N)[nH]c(=O)c21 [Compound 36]	2.92
COC(=O)/C=C/Cn1c(=O)n([C@@H]2O[C@H](CO)[C@H](O)[C@H]2O)c2nc(N)[nH]c(=O)c21 [Compound 10]	3.61
C#CCn1c(=O)n([C@@H]2O[C@H](CO)[C@H](F)[C@H]2O)c2nc(N)[nH]c(=O)c21 [Compound 28]	3.33

Please find the next molecule below.
For Nc1nc2c(c(=O)[nH]1)n(C/C=C/CO)c(=O)n2[C@@H]1O[C@H](CO)[C@H](O)[C@H]1O [Compound 8] , what is its reported pEC50?
3.38
